Reference source for all entries: PubChem BioAssay AID1224865

- assayed-system: Hepatocyte nuclear factor 4-alpha (Homo sapiens)
- method: change in binding of human HNF4A to DNA, primary screen, biochemical, fluorescence polarization, FITC-DNA (AID 1224865)
- condition-description: 1 h, at 10 µM, hits give high values
Among all 360,000 compounds or so, about 1,100 (0.31%) were called active. This excerpt belongs to a sample that is enriched for actives.
Answer each item with its documented activity change.
Numbers only, in %.

# count of solved cases: 2
molecule: CN(C)c1ccc(/C=C2\NC(=S)N(Cc3ccccc3)C2=O)cc1
u: %
readout-number: 128
--
molecule: COc1ccc(CN2CCCCC2C)cc1OC (stereo not drawn)
u: %
readout-number: -0.13

Enquiry: Fill blank: measured activity change of the molecule O=C(CCCn1c(=O)c2sccc2n(CC(=O)NCC2CCCO2)c1=O)NCc1ccco1 (stereo not drawn) is ____.
Return: -1.63

###

- assayed-system: Hepatocyte nuclear factor 4-alpha (Homo sapiens) (UniProt P41235)
- Sequence (P41235 whole entry, looked up): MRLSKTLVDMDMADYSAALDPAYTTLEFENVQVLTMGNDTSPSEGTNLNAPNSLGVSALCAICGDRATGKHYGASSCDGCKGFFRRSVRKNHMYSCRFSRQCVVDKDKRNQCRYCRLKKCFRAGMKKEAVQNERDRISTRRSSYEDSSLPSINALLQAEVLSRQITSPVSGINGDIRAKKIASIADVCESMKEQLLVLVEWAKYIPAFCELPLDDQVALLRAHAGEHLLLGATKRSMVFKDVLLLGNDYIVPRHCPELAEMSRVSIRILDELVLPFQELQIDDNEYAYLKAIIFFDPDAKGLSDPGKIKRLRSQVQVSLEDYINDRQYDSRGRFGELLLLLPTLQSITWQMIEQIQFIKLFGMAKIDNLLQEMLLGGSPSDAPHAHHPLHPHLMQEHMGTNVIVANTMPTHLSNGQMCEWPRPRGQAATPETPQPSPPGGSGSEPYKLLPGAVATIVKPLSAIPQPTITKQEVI
- method: change in binding of human HNF4A to DNA, primary screen, biochemical, fluorescence polarization, FITC-DNA (AID 1224865)
- condition-description: 1 h, at 10 µM, hits give high values
The campaign covered roughly 360,000 compounds. About 1,100 (0.31%) were called active. This excerpt belongs to a sample that is enriched for actives.
reported-property: activity change

Consider the reported activity change for these compounds:
compound: CCc1nnc(NC(=O)CSc2nc(SC)ns2)s1
reported-property: activity change
result: 0.21% (inactive)
--
compound: C=CCn1c(SCc2cccc(F)c2)nc2cc(C(=O)N3CCC(C(N)=O)CC3)ccc2c1=O
reported-property: activity change
result: 2.05% (inactive)
--
compound: O=C(Cn1[nH]c(=O)c2ccccc2c1=O)Nc1cccc(-c2nnc3n2CCCCC3)c1
reported-property: activity change
result: 1.84% (inactive)
--
compound: Cc1oc2nc(SCC(=O)Nc3ccc(S(N)(=O)=O)cc3)nc(NC(=O)c3ccccc3)c2c1C
reported-property: activity change
result: -0.08% (inactive)
--
compound: N#Cc1ccc(C(=O)Nc2cccc3cccnc23)c(F)c1
reported-property: activity change
result: 43.6% (active)
--
compound: CN1OC[C@@H]2CN(C(=O)c3cccnc3)[C@H](c3ccc(N4CCCCC4)cc3)C[C@@H]21
reported-property: activity change
result: 10.4% (inactive)

Working through the 7 compounds below one at a time, give activity change for each.
1. CSc1ccc(C#N)cc1NC(=O)c1ccc(Cl)cc1
2. Cc1ccc(Cl)cc1N1CCN(C(=O)c2cccc3c(=O)c(C)c(-c4ccccc4)oc23)CC1
3. CCc1nnc(NC(=O)c2ccco2)s1
4. CCOc1[nH]n(-c2ccc(Cl)cc2)c(=O)c1C=Nc1ccc(O)cc1
5. CCc1ccc2oc(-c3ccc(N)cc3)nc2c1
6. COc1ccc2oc(N)nc2c1
7. CCCNC(=O)c1cc(C2CCCCN2S(=O)(=O)c2cn(C)cn2)on1 (stereo unspecified)

Return:
1. 2.01% (inactive)
2. -0.99% (inactive)
3. 0.04% (inactive)
4. -5.55% (inactive)
5. 71.8% (active)
6. 0.82% (inactive)
7. -2.31% (inactive)

Would you mind listing activity change for each of the following compounds?
1. Cc1ccc(C)c(C(=O)COC(=O)Cn2[nH]c(=O)c3ccccc3c2=O)c1
2. C/C(=N/Nc1nc(-c2ccccc2)c(CC(=O)O)s1)c1ccccc1
3. CCN(CC(=O)NCc1cccs1)C(=O)/C=C/c1ccc(C)cc1

Return:
["-0.2% (inactive)", "48.6% (active)", "0.98% (inactive)"]
